- Test system: Abeta 40
- assay_overview: In vivo inhibition of beta-secretase: percent Abeta 40 reduction in CSF and brain
- Design: species or system rat
- condition_notes: Abeta 40, rat CSF, 10 mpk, after 4 hrs; read-out: % reduction of rat CSF levels at 10 pmk
test_readout: inhibition in vivo at 10 mg/kg (%)
// return numeric value only (unit: %, not printed)

Just so you know, measured inhibition in vivo at 10 mg/kg for COc1cnc2c(Nc3ccc(F)c([C@@]4(C)N=C(N)[C@@]5(C)CC[C@@H]4S5(=O)=O)c3)ncnc2c1 [Example 132] came out at 70

Entry COc1cnc(C(=O)Nc2ccc(F)c([C@@]3(C)N=C(N)[C@@]4(C)CC[C@@H]3S4(=O)=O)c2)c(C)n1 [Example 79] — recorded inhibition in vivo at 10 mg/kg = 71

Consider Cc1cc(C(F)(F)F)cnc1C(=O)Nc1ccc(F)c([C@@]2(C)N=C(N)[C@@]3(C)CC[C@@H]2S3(=O)=O)c1 [Example 24] . Its measured inhibition in vivo at 10 mg/kg is 72

inhibition in vivo at 10 mg/kg reading for COc1cnc2c(Nc3ccc(F)c([C@@]4(C)N=C(N)[C@@]5(CF)CC[C@@H]4S5(=O)=O)c3)nccc2c1 [Example 56] : 69

Note to self: inhibition in vivo at 10 mg/kg recorded for CC#CCOc1cnc(C(=O)Nc2ccc(F)c([C@@]3(C)N=C(N)[C@@]4(C)CC[C@@H]3S4(=O)=O)c2)cn1 [Example 82] was 71

Record CC#Cc1ccc(C(=O)Nc2ccc(F)c([C@@]3(C)N=C(N)[C@@]4(C)CC[C@@H]3S4(=O)=O)c2)nc1 [Example 69] . Reported inhibition in vivo at 10 mg/kg: 42

The recorded inhibition in vivo at 10 mg/kg for C[C@]1(c2cc(N)ccc2F)N=C(N)[C@@]2(C)CC[C@@H]1S2(=O)=O [Example 35] is 52

Briefly, inhibition in vivo at 10 mg/kg measured for Cc1cnc(COc2cnc3c(Nc4ccc(F)c([C@@]5(C)N=C(N)[C@@]6(C)CC[C@@H]5S6(=O)=O)c4)nccc3n2)o1 [Example 146] : 35

Reported inhibition in vivo at 10 mg/kg of COc1cnc2c(Nc3ccc(F)c([C@@]4(C)N=C(N)[C@@]5(C)CC[C@@H]4S5(=O)=O)c3)nccc2n1 [Example 80] : 72

Memo: C#CCOc1ccc(C(=O)Nc2ccc(F)c([C@@]3(C)N=C(N)[C@@]4(CF)CC[C@@H]3S4(=O)=O)c2)nc1 [Example 52] , reported inhibition in vivo at 10 mg/kg: 67

The compound listed as C#CCOc1cnc(C(=O)Nc2ccc(F)c([C@@]3(C)N=C(N)[C@@]4(CF)CC[C@@H]3S4(=O)=O)c2)c(C)n1 [Example 59] has a reported inhibition in vivo at 10 mg/kg of 80

Consider C[C@]1(c2cc(NC(=O)c3ccc(C(F)(F)F)cn3)ccc2F)N=C(N)[C@@]2(CF)CC[C@@H]1S2(=O)=O [Example 110] . Its measured inhibition in vivo at 10 mg/kg is 65

get_value(item= COc1cnc(C(=O)Nc2ccc(F)c([C@@]3(C)N=C(N)[C@@]4(CF)CC[C@@H]3S4(=O)=O)c2)c(C)n1 [Example 76] , readout=inhibition in vivo at 10 mg/kg) returns 76

Measured inhibition in vivo at 10 mg/kg, COc1cnc2c(Nc3ccc(F)c([C@@]4(C)N=C(N)[C@@]5(CF)CC[C@@H]4S5(=O)=O)c3)nccc2n1 [Example 41] : 76

Query C[C@]1(c2cc(NC(=O)c3ccc(Cl)cn3)ccc2F)N=C(N)[C@@]2(CF)CC[C@@H]1S2(=O)=O [Example 77] yields inhibition in vivo at 10 mg/kg of 77

The compound listed as Cc1cc(OC(F)F)cnc1C(=O)Nc1ccc(F)c([C@@]2(C)N=C(N)[C@@]3(CF)CC[C@@H]2S3(=O)=O)c1 [Example 102] shows inhibition in vivo at 10 mg/kg equal to 67

Notebook: C[C@]1(c2cc(NC(=O)c3cnc(C(F)F)cn3)ccc2F)N=C(N)[C@@]2(CF)CC[C@@H]1S2(=O)=O [Example 109] , inhibition in vivo at 10 mg/kg read as 70

Entry C[C@]1(c2cc(Nc3nccc4nc(OCc5ncco5)cnc34)ccc2F)N=C(N)[C@@]2(CF)CC[C@@H]1S2(=O)=O [Example 104] — recorded inhibition in vivo at 10 mg/kg = 74

----------
- measured_target: BACE1 (Homo sapiens, UniProt P56817)
- Sequence (P56817 46-501, species assumed): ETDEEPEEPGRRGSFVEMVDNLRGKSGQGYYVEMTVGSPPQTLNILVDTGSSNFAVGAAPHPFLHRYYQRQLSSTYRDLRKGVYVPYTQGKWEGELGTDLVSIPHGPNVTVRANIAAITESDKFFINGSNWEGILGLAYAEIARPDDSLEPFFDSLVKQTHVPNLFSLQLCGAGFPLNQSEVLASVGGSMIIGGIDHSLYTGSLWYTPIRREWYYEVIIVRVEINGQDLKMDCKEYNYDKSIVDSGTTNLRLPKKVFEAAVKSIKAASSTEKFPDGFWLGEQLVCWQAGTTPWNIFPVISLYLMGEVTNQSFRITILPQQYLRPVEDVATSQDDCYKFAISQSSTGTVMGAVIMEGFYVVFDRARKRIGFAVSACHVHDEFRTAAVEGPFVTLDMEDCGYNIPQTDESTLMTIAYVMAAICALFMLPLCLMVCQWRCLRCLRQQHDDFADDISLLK
- assay_overview: In vitro enzymatic BACE FRET assay
- Type: biochemical
- condition_notes: average IC50; read-out: BACE1 Enzyme assay IC50
Can you tell me pIC50 for the items I'm about to list?
pIC50 is a log-scale quantity: -log10 of the concentration expressed in molar.

Record CC#CCOc1ccc(C(=O)Nc2ccc(F)c([C@@]3(C)N=C(N)[C@@]4(C)CC[C@@H]3S4(=O)=O)c2)c(F)c1 . Reported pIC50: 7.21

Lab note: COc1cnc(C(=O)Nc2ccc(F)c([C@@]3(C)N=C(N)[C@@]4(CF)CC[C@@H]3S4(=O)=O)c2)c(F)c1 gave pIC50 of 8.05

Recorded pIC50 (molecule CC#C[C@H](C)Oc1cnc(C(=O)Nc2ccc(F)c([C@@]3(C)N=C(N)[C@@]4(C)CC[C@@H]3S4(=O)=O)c2)cn1 ): 8.52

Entry under test: Cc1cc(C(F)(F)F)cnc1C(=O)Nc1ccc(F)c([C@@]2(CF)N=C(N)[C@@]3(C)CC[C@@H]2S3(=O)=O)c1 (single isomer, unassigned) . Its pIC50 was 7.21

Value of pIC50 reported for the molecule CC#CCOc1cnc2c(Nc3ccc(F)c([C@@]4(C)N=C(N)[C@@]5(C)CC[C@@H]4S5(=O)=O)c3)ncc(F)c2c1 is 9.00

So for C#CCOc1ccc(C(=O)Nc2ccc(F)c([C@@]3(C)N=C(N)[C@@]4(CF)CC[C@@H]3S4(=O)=O)c2)nc1 , the logged pIC50 turned out to be 9.00

Per the record, CC(C)COc1cnc2c(Nc3ccc(F)c([C@@]4(C)N=C(N)[C@@]5(C)CC[C@@H]4S5(=O)=O)c3)nccc2n1 has pIC50 of 8.05

CCc1ccc(C(=O)Nc2ccc(F)c([C@@]3(C)N=C(N)[C@@]4(CF)CC[C@@H]3S4(=O)=O)c2)nc1 yielded pIC50 of 7.59

Form: molecule = COc1cnc(C(=O)Nc2ccc(F)c([C@@]3(C)N=C(N)[C@@]4(CF)CC[C@@H]3S4(=O)=O)c2)c(C)c1 ; pIC50 = 7.89

pIC50 measured on Cc1cc(C#N)cnc1C(=O)Nc1ccc(F)c([C@@]2(C)N=C(N)[C@@]3(CF)CC[C@@H]2S3(=O)=O)c1 = 8.70

The reported value for COC[C@]12CC[C@H]([C@@](C)(c3cc(NC(=O)c4ncc(Cl)cc4C)ccc3F)N=C1N)S2(=O)=O in terms of pIC50 is 7.03

# molecule C[C@]12CC[C@H]([C@@](C)(c3cc(Nc4ncc(F)c5cc(OCC6CC6)cnc45)ccc3F)N=C1N)S2(=O)=O ; its pIC50 = 7.21

Summary for this molecule, C[C@]1(c2cc(Nc3ncnc4cc(OCC5CC5)cnc34)ccc2F)N=C(N)[C@@]2(C)CC[C@@H]1S2(=O)=O : pIC50 is 8.30

Reported pIC50 ( CC#Cc1ccc(C(=O)Nc2ccc(F)c([C@@]3(C)N=C(N)[C@@]4(C)CC[C@@H]3S4(=O)=O)c2)nc1 ) = 8.70

Kindly note the recorded pIC50 for C[C@]12CC[C@](C)([C@@](C)(c3cc(Nc4ncc(F)c5cc(Cl)cnc45)ccc3F)N=C1N)S2(=O)=O , which is 7.96

----------
- measured_target: Cathepsin D (Cat D) (Homo sapiens)
- Construct: made in house; host or cells: CHO cells
- Sequence (P07339 65-412, species assumed): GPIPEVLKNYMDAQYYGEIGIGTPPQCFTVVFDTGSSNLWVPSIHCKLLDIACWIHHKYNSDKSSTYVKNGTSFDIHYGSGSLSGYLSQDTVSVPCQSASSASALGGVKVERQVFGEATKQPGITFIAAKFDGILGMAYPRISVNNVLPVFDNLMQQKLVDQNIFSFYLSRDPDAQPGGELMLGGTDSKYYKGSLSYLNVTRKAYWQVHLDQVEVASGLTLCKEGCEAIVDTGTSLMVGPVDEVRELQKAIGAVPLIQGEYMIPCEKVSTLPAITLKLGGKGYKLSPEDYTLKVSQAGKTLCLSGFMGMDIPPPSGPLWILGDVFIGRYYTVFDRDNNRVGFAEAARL
- assay_overview: In vitro enzymatic Cathepsin D (Cat D) FRET assay
- Type: biochemical
- condition_notes: average IC50; first procedure; read-out: CatD IC50
pIC50: −log10 of the molar value.
Assign pIC50 to each entry below.

# compound C[C@]1(c2cc(Nc3nccc4nc(C(F)(F)F)cnc34)ccc2F)N=C(N)[C@@]2(C)CC[C@@H]1S2(=O)=O [Example 86] ; its pIC50 = < 4.35

So, CCCOc1cnc2c(Nc3ccc(F)c([C@@]4(C)N=C(N)[C@@]5(C)CC[C@@H]4S5(=O)=O)c3)nccc2n1 [Example 144] ? Its pIC50 was < 3.40

In plain terms, C[C@]1(c2cc(NC(=O)c3c(F)cc(Br)cc3F)ccc2F)N=C(N)[C@@]2(C)CC[C@@H]1S2(=O)=O [Example 125] has a documented pIC50 of < 3.40

----------
Would you mind telling me the reported IC50 of each entry?
- measured_target: BACE1 (Homo sapiens, UniProt P56817)
- assay_overview: In vitro enzymatic BACE FRET assay
- Format: biochemical
- condition_notes: read-out: BACE1 FRET assay IC50
The reply should be a number in nM, with the unit left off.

Record Cc1cc(Cl)cnc1C(=O)Nc1ccc(F)c([C@@]2(C)N=C(N)[C@]3(C)CCC[C@@]2(C)S3(=O)=O)c1 , field IC50: 5

Given item Cc1cc(Cl)cnc1C(=O)Nc1ccc(F)c([C@]2(C)N=C(N)[C@]3(C)CC[C@H]2S3(=O)=O)c1 , the value recorded as its IC50 is 4540

# compound Cc1cc(Cl)cnc1C(=O)Nc1ccc(F)c([C@@]2(C)N=C(N)[C@H]3CC[C@@H]2S3(=O)=O)c1 ; its IC50 = 8460

Measured IC50 of Cc1c(C(=O)Nc2ccc(F)c([C@@]3(C)N=C(N)[C@]4(C)CC[C@H]3S4(=O)=O)c2)nc2ccc(Cl)cn12 : 70

get_value(item= Cc1cc(C(F)(F)F)cnc1C(=O)Nc1ccc(F)c([C@@]2(C)N=C(N)[C@@]3(C)CC[C@@H]2S3(=O)=O)c1 , readout=IC50) returns 5

Entry COc1cnc2c(Nc3ccc(F)c([C@@]4(C)N=C(N)[C@]5(C)CCC[C@H]4S5(=O)=O)c3)nccc2n1 — recorded IC50 = 130

Lab note: Cc1cc(OC(F)F)cnc1C(=O)Nc1ccc(F)c([C@@]2(C)N=C(N)[C@@]3(C)CC[C@@H]2S3(=O)=O)c1 gave IC50 of 2

IC50 for Cc1cc(OC(F)F)cnc1C(=O)Nc1ccc(F)c([C@@]2(C)N=C(N)[C@]3(C)CCC[C@@]2(F)S3(=O)=O)c1 is 9

The measured IC50 associated with C[C@]1(c2cc(Nc3ncc(F)c4cc(Cl)cnc34)ccc2F)N=C(N)[C@@]2(C)CC[C@@H]1S2(=O)=O reads 1
